Provide the recorded TGI for the entries that follow.
tested on: MDA-MB-231 breast; test: NCI tumour cell line growth inhibition, 48 h

query: Request body: readout TGI, system MDA-MB-231 breast, query Nc1nc(N)c2nc(CNc3ccc(C(=O)NC(CCC(=O)O)C(=O)O)cc3F)cnc2n1 (stereo unspecified) . Return the value.
result: > 100 µM

query: Request body: readout TGI, system MDA-MB-231 breast, query C=CC(C)c1cccc(C=O)c1O (stereo unspecified) . Return the value.
result: > 100 µM

query: Request body: readout TGI, system MDA-MB-231 breast, query CC12c3c4cccc3Oc3cc(N)cc(c31)Oc1cc(N)cc(c12)O4 . Return the value.
result: 27.4 µM

query: Request body: readout TGI, system MDA-MB-231 breast, query COc1ccc(-c2nc(N3CCCC3)no2)cc1 . Return the value.
result: > 100 µM

query: Request body: readout TGI, system MDA-MB-231 breast, query O=C1CSC(c2cccc(Cl)c2)N1c1ccc(-n2c(-c3ccccc3)nc3ccccc3c2=O)cc1 (stereo unspecified) . Return the value.
result: > 100 µM

query: Request body: readout TGI, system MDA-MB-231 breast, query C/C=C/C1=CN2C(=O)c3cc(OC4OC(C)C(NC)C(C)(O)C4O)c(C)cc3N=C[C@@H]2C1 (stereo partly specified) . Return the value.
result: 17.1 µM

query: Request body: readout TGI, system MDA-MB-231 breast, query Fc1cccc(F)c1C1SCc2nc3cc4ccccc4cc3n21 (stereo unspecified) . Return the value.
result: > 100 µM

query: Request body: readout TGI, system MDA-MB-231 breast, query N#Cc1cnc(=O)n(C2CC(O)C(CO)O2)c1 (stereo unspecified) . Return the value.
result: > 100 µM

query: Request body: readout TGI, system MDA-MB-231 breast, query COc1ccc(C(=O)c2cc(OC)c(OC)c(OC)c2)cc1OC(=O)C(Cl)(Cl)Cl . Return the value.
result: > 100 µM

query: Request body: readout TGI, system MDA-MB-231 breast, query COP(=O)(OC)/C(=C/c1cn(C(C)=O)c2ccccc12)NC(C)=O . Return the value.
result: > 100 µM

query: Request body: readout TGI, system MDA-MB-231 breast, query CC(=O)OCCn1c(Cc2ccc(C)cc2)nn(C(C)=O)c1=O . Return the value.
result: > 100 µM

* * *

tested on: SF-539 CNS; assay: NCI tumour cell line growth inhibition, 48 h
Classify as follows. Reported TGI greater than or equal to 20 µM: 1. Reported TGI below: 0.

query: Assess whether reported TGI for O=C(CCN1CCOCC1)c1ccc(Oc2ccc(F)cc2)cc1 sits at 20 µM or higher.
result: 1

query: Assess whether reported TGI for COc1ccc(/C=C/c2cc(OC)c(OC)c(OC)c2)cc1O[Si](C)(C)C(C)(C)C sits at 20 µM or higher.
result: 0

query: Assess whether reported TGI for O=C(Nc1c(O)[nH]c(=S)[nH]c1=O)c1ccco1 sits at 20 µM or higher.
result: 1

query: Assess whether reported TGI for OC1c2[nH]c3ccccc3c2CCN2CCCCC12 (configuration not stated) sits at 20 µM or higher.
result: 1

query: Assess whether reported TGI for Cc1cc(C)c([S@@](=O)O[C@@H]2[C@H]3OC(C)(C)O[C@H]3O[C@@H]2[C@H]2COC(C)(C)O2)c(C)c1 sits at 20 µM or higher.
result: 1

query: Assess whether reported TGI for CCCCCC(/C=C/[C@@H]1[C@H]2CC(=O)O[C@H]2C[C@H]1N1CCOCC1)OC1CCCO1 (some centres not stated) sits at 20 µM or higher.
result: 1

query: Assess whether reported TGI for COc1ccc(OC)c(/C=C/C(=O)N/N=C/c2ccccc2)c1 sits at 20 µM or higher.
result: 1

query: Assess whether reported TGI for N#C/C(=C1C=C/C(=N/O)C(Cl)=C/1)c1ccc(Cl)cc1 sits at 20 µM or higher.
result: 0

query: Assess whether reported TGI for CC1(C)S[C@H](c2ccccc2C(=O)O)N[C@@H]1CC(=O)O sits at 20 µM or higher.
result: 1

query: Assess whether reported TGI for O=S(=O)(SCCCCSS(=O)(=O)c1ccc(Cl)cc1)c1ccc(Cl)cc1 sits at 20 µM or higher.
result: 1

query: Assess whether reported TGI for Cc1ccc2cc3c(cc(C)c4ccccc43)c3c2c1CC3 sits at 20 µM or higher.
result: 1

query: Assess whether reported TGI for Cc1ccc(Nc2nc3ccccc3c(=O)n2N)cc1 sits at 20 µM or higher.
result: 1

query: Assess whether reported TGI for COc1ccc(C(=O)c2cc(OC)c(OC)c(OC)c2)cc1OC(=O)C(Cl)(Cl)Cl sits at 20 µM or higher.
result: 0

query: Assess whether reported TGI for S=c1ssnc1-c1ccccn1 sits at 20 µM or higher.
result: 0

query: Assess whether reported TGI for O=C1c2c(c(-c3ccccc3)c(-c3ccccc3)c(-c3ccccc3)c2-c2ccccc2)C(=O)N1c1cccc(Br)c1 sits at 20 µM or higher.
result: 1

query: Assess whether reported TGI for COc1ccc(/C=C/C(=O)c2ccc(Cl)cc2Cl)cc1 sits at 20 µM or higher.
result: 1

query: Assess whether reported TGI for NC(=O)c1c(Br)n(C2OC(CO)C(O)C2O)c2ncnc(N)c12 (configuration not stated) sits at 20 µM or higher.
result: 0

query: Assess whether reported TGI for O=C1C(Cl)C(c2cc(Br)ccc2O)N1n1cnc2ccccc2c1=O (configuration not stated) sits at 20 µM or higher.
result: 1

query: Assess whether reported TGI for C=CCNC(=S)/N=C\C(C(=O)OCC)=C(/O)C(=O)OCC sits at 20 µM or higher.
result: 1

query: Assess whether reported TGI for O=C(O)/C=C\C(=O)c1ccc(Cl)cc1 sits at 20 µM or higher.
result: 1

query: Assess whether reported TGI for CC(=O)OC(C[C@H](C)[C@@H]1CC[C@]2(C)C3=CCC4C(C)(C)C(=O)CC[C@]4(C)C3CCC12C)C1OC1(C)C (some centres not stated) sits at 20 µM or higher.
result: 1

query: Assess whether reported TGI for C=CC(C)c1cccc(C=O)c1O (configuration not stated) sits at 20 µM or higher.
result: 1
